Kindly supply the reported growth values for the records listed here.
- Tested on: MCF7 breast
- PROCEDURE TEXT: NCI-60 one-dose screen, 48 h (100 = growth as untreated, 0 = no growth, -100 = all killed)
- TEST PARAMETERS: 10 µM unless noted
The panel holds about 83,000 compounds, 20% with a hit somewhere; the sample as a whole holds those more often.
Answers are plain numbers, in %.

Example cases with answers are listed next.
[
  {
    "COMPOUND": "COc1cccc(NC(=O)Nc2ccc(Nc3ncnc4[nH]c(C)c(C)c34)cc2)c1",
    "growth (%)": 91.1
  },
  {
    "COMPOUND": "CCOc1ccc(C2N(c3cc(OC)c(OC)c(OC)c3)C(=O)C2(F)F)cc1 (stereo not given)",
    "growth (%)": 17.2
  },
  {
    "COMPOUND": "COc1ccc(NC(=O)c2sc3nc(C)c(C(C)=O)cc3c2N)cc1",
    "growth (%)": 95.7
  },
  {
    "COMPOUND": "COc1ccc(/C=C(/C(=O)N2CCCC2)c2cc(OC)c(OC)c(OC)c2)cc1",
    "growth (%)": 24.8
  },
  {
    "COMPOUND": "COc1ccc(-c2nnc(N3CCN(C(=O)CN4CCN(c5ccc(OC)cc5)CC4)CC3)nc2-c2ccc(OC)cc2)cc1",
    "growth (%)": -69.8
  },
  {
    "COMPOUND": "COc1ccc(NC(=O)Nc2ccc(Nc3nc(C)cc(Nc4ccc(C)cc4)n3)cc2)cc1",
    "growth (%)": -63.8
  },
  {
    "COMPOUND": "C=C1C(=O)O[C@H]2[C@H]1CC/C(COC(=O)c1c[nH]c3ccccc13)=C\\CC[C@@]1(C)O[C@@H]21",
    "growth (%)": -52.7
  },
  {
    "COMPOUND": "O=C1Nc2ccc(Cl)cc2/C1=N/c1nc(-c2ccc(F)cc2)cs1",
    "growth (%)": 12.5
  }
]

Give growth for all compounds that follow.
1. Nn1c(SCC(=O)Nc2ccc(Cl)cc2)nnc1-c1cc(F)c(Cl)cc1Cl
2. COc1cc(-c2nn(-c3ccc(Br)cc3)cc2CO)ccc1O

1. 72.3
2. 92.1
